Tested on: A549
assay remarks: Cytotoxicity against human A549 cells after 96 hrs by SRB assay
Assay type: functional, cell-based
details: Homo sapiens, A549, 96 h; read-out: IC50
readout label: IC50 (µM)
Write the answer as a number in µM, unit excluded.

Recorded IC50 (compound `C=C/C=C1/C[C@]2(C)[C@H]3CC[C@@H]4[C@H]5[C@H](C(=C)C)CC[C@]5(C(=O)OC)CC[C@@]4(C)[C@]3(C)CC[C@H]2C(C)(C)C1=O` ): 13

Recorded IC50 (compound `C=C(C)[C@@H]1CC[C@]2(C(=O)OC)CC[C@]3(C)[C@H](CC[C@@H]4[C@@]5(C)C[C@@H](CS(=O)(=O)CCO)C(=O)C(C)(C)[C@@H]5CC[C@]43C)[C@@H]12` ): 3.3
